# TARGET_UNDER_TEST: T1, GFP-9S library array, motif 4 ND N98T;D124M (synthetic construct, N98T;D124M)
# T1 chain: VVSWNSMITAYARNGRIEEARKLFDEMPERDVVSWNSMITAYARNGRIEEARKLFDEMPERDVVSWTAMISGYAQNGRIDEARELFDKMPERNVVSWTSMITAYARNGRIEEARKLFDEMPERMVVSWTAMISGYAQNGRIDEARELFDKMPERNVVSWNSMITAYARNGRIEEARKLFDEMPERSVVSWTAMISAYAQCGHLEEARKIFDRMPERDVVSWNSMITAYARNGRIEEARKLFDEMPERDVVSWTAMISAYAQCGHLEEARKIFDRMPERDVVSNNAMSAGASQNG
# PROTOCOL_DETAILS: high-throughput RNA pulldown from lysate on Ni-NTA beads; HRP: 50 mM Tris pH 8, 150 mM NaCl, 1 mM beta-mercaptoethanol, 50 ug/ml BSA, 3 ug/ml yeast RNA, 0.5% heparin; ITC and FP: Tris pH 8, 200 mM KCl, 5% glycerol; MST: 50 mM Tris pH 8, 200 mM NaCl, 1 mM DTT, BSA, heparin, 0.05% Tween 20
# TEST_PARAMETERS: tags: N-terminal His-eGFP; label: 5' Cy5
Measured Kd, listed per entry for reference.
Give a bare numeral; the unit nM is implied.

{"BINDER": "AUUAGACGUGA (ssRNA) [Cy5-rpoA-G]", "Kd / nM": 107}

Next item in the queue.
// query Kd value for entry AUUACACGUGA (ssRNA) [Cy5-rpoA]
// result 101
